# Tested On: T1, cyno pro-myostatin (cynomolgus monkey, Biotinylated for capture in the SPR assay (site not stated). The native form is a disulfide-linked homodimer, partly furin-cleaved; one chain is given.)
# T1 construct: also called proGDF8 (cynomolgus); cynomolgus monkey pro-myostatin
# Experiment Notes: SPR Biacore 8K, biotin-antigen captured
A collection of binders and their measured koff
Write the answer as a number in s⁻¹, unit excluded.

Ab112 (antibody, human IgG4 S228P, kappa, V domains shown) VH: QVQLVQSGAEVKKPGASVKVSCKVSGGTFGIYAIHWVRQAPGKGLEWMGGTIPVFGTAIYAQKFQGRVTMTEDTSTDTAYMELSSLKSEDTAVYYCASLTGIAAAGTHPARGGMDVWGQGTTVTVSS VL: DIQMTQSPSSVSASVGDRVTITCRASPSISSYLAWYQQKPGKAPKLLIYAASRLQSGVPSRFSGSGSGTDFTLTISSLQPEDFANYYCQEYLSFPLTFGGGTKVEIKR ... 0.000124

IN: Could you tell me which koff is on file for Ab107 (antibody, human IgG4 S228P, kappa, V domains shown) VH: EVQLVESGGGLVQPGGSLRLSCAASGSAFSSYGMSWVRQAPGKGLELVASINSNGGSTYYPDSVKGRFTISRDNAKNSLYLQMNSLRAEDTAVYYCARDQLVRFLEWSHYYGMDVWGQGTTVTVSS VL: DIVMTQSPLSLPVTPGEPASISCRSSQSLLHSSGHNFLHWYLQKPGQSPQLLIYAGSNRPSGVPDRFSGSGSGTDFTLKISRVEAEDVGVYYCAHATQLPHTFGGGTKVEIKR ?
OUT: 0.000316

IN: Could you tell me which koff is on file for Ab106 (antibody, human IgG4 S228P, kappa, V domains shown) VH: EVQLVESGGGLVQPGGSLRLSCAASGSAFSSYGMSWVRQAPGKGLELVASINSNGGSTYYPDSVKGRFTISRDNAKNSLYLQMNSLRAEDTAVYYCARDLLVRFLEWAGYYGMDVWGQGTTVTVSS VL: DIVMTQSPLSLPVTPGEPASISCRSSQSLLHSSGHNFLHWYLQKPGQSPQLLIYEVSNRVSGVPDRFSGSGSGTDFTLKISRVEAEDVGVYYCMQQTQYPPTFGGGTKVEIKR ?
OUT: 0.000291

IN: Could you tell me which koff is on file for Ab105 (antibody, human IgG4 S228P, kappa, V domains shown) VH: EVQLVESGGGLVQPGGSLRLSCAASGSAFSSYGMSWVRQAPGKGLELVASIGGTGATYYPDSVKGRFTISRDNAKNSLYLQMNSLRAEDTAVYYCARDLLVRFLEWGHYYGMDVWGQGTTVTVSS VL: DIVMTQSPLSLPVTPGEPASISCRSSQSLLHSSGYNFLHWYLQKPGQSPQLLIYAASSRAPGIPDRFSGSGSGTDFTLKISRVEAEDVGVYYCMHGGQGPTFGGGTKVEIKR ?
OUT: 0.000233

IN: Could you tell me which koff is on file for Ab121 (antibody, human IgG4 S228P, kappa, V domains shown) VH: QVTLRESGPALVKPTQTLTLTCTVSGFSFSTSGMVVNWIRQPPGKALEWLAMIDWDADNIVYNSALKSRLTISKDTSKNQVVLTMTNMDPVDTATYYCAKDTGSGWFDAFDIWGQGTMVTVSS VL: DIVMTQSPDSLAVSLGERATINCKSSQSVLYSSTNQNFLAWYQQKPGQPPKLLIYQASTLQNGVPDRFSGSGSGTDFTLTISSLQAEDVAVYYCQQYLTTPYTFGGGTKVEIKR ?
OUT: 0.000365
